From: paper PMC4336329

- Tested target: human ether-à-go-go-related gene (hERG) potassium channel (human);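 further: peak tail current of the secondary pulse compared with the same well before compound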
- Test method notes: primary screen, population patch clamp on CHO cells stably expressing hERG; higher = less effect of the substance
The whole screen tested about 310,000 compounds, of which about 14,000 (4.5%) showed an effect of 50% or more. The effect is printed as a negative number. This excerpt belongs to a sample that is enriched for strong results.
Metric: hERG current change (%, negative = inhibition) at 10uM (%)
Supply the numeric figure in %, leaving out any unit text.

Provide hERG current change (%, negative = inhibition) at 10uM value for the following compound: COC(=O)c1cccnc1SCc1ccccc1 -14.9

Provide hERG current change (%, negative = inhibition) at 10uM value for the following compound: N#CCC(=O)Nc1ccc(C(=O)OCC(=O)Nc2ccccc2-c2ccccc2)cc1 9.2

Provide hERG current change (%, negative = inhibition) at 10uM value for the following compound: Cc1cn(C2C=CC(CO)O2)c(=O)[nH]c1=O (centres unmarked) 4.79

Provide hERG current change (%, negative = inhibition) at 10uM value for the following compound: N#CC1=C(SCC(=O)Nc2cccc3cccnc23)NC(=O)C(C#N)C12CCCCC2 (centres unmarked) -20.7

***
Provide hERG current change (%, negative = inhibition) at 10uM value for the following compound: Cc1ccc(C(=O)Nc2ccccc2C(=O)NCc2ccccc2)cc1 5.63

Provide hERG current change (%, negative = inhibition) at 10uM value for the following compound: CCCCOc1c(Br)cc(CNCCCN2CCOCC2)cc1OC.Cl -35

Provide hERG current change (%, negative = inhibition) at 10uM value for the following compound: C=CCNC(=S)NC(=O)c1ccc(C)c(Br)c1 3.39

Provide hERG current change (%, negative = inhibition) at 10uM value for the following compound: CCC(Sc1nc2ccsc2c(=O)n1-c1ccc(Cl)c(C)c1)C(=O)NCc1ccco1 (centres unmarked) -16.8

---

- Tested target: human ether-à-go-go-related gene (hERG) potassium channel (human, UniProt Q12809);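 further: peak tail current of the secondary pulse compared with the same well before compound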
- Sequence (Q12809 whole entry, looked up): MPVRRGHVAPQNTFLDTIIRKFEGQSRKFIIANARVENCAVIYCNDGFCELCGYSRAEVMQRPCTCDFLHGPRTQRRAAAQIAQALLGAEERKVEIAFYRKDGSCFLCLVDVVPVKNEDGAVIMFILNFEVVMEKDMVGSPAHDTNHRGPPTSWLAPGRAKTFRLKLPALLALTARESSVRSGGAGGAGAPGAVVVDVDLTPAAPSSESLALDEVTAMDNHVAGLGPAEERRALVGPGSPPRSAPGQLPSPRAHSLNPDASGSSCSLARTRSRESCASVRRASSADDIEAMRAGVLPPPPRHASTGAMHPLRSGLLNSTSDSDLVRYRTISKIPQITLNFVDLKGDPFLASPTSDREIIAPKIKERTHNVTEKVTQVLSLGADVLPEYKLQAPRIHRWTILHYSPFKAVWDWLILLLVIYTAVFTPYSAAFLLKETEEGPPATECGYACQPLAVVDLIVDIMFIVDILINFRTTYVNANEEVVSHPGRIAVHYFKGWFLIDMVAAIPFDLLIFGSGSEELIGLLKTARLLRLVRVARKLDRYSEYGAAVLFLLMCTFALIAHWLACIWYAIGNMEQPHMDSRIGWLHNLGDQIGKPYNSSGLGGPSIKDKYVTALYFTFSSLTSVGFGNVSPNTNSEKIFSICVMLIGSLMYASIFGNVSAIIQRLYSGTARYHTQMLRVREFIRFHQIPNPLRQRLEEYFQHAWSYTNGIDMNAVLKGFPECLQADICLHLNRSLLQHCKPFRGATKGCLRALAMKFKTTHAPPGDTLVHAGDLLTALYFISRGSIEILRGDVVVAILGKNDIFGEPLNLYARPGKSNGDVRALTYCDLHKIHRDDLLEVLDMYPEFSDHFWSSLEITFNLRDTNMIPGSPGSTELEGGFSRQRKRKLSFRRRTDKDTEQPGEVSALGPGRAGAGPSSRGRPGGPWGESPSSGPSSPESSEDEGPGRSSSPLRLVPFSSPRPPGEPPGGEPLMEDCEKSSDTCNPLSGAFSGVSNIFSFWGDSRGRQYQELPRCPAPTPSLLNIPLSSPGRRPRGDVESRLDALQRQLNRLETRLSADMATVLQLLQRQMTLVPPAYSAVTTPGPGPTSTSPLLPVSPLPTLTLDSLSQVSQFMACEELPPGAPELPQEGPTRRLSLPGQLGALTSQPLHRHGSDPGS
- Test method notes: primary screen, population patch clamp on CHO cells stably expressing hERG; higher = less effect of the substance
In all, about 310,000 compounds went through this assay and about 14,000 (4.5%) showed an effect of 50% or more. The effect is printed as a negative number. The entries come from a sample that favours strong results as a whole.
Metric: hERG current change (%, negative = inhibition) at 10uM (%)
Supply the numeric figure in %, leaving out any unit text.

These solved cases illustrate the format of a correct answer.
Provide hERG current change (%, negative = inhibition) at 10uM value for the following compound: COC(=O)C1=NN(C(=O)c2ccc(C)cc2)C(O)(c2ccc(Cl)cc2)C1 (stereo not drawn) -31.2

Provide hERG current change (%, negative = inhibition) at 10uM value for the following compound: Cc1cccc(C)c1NC(=O)CNC(=O)CN1C(=O)NC2(CCc3ccccc32)C1=O (stereo not drawn) 1.69

Provide hERG current change (%, negative = inhibition) at 10uM value for the following compound: CC(=O)c1cnc2n(c1=O)CCS2 27.8

Provide hERG current change (%, negative = inhibition) at 10uM value for the following compound: COc1cc([N+](=O)[O-])ccc1NC(=O)NCC1CCN(Cc2ccc(Cl)cc2)CC1 -60.9

Provide hERG current change (%, negative = inhibition) at 10uM value for the following compound: CCOc1cc2[nH]c(=O)n(CCCN3CCCC3=O)c(=O)c2cc1OCC -6.1

Provide hERG current change (%, negative = inhibition) at 10uM value for the following compound: CCOc1cc2[nH]c(=S)n(CCCN3CCOCC3)c(=O)c2cc1OCC -18.5

***
Provide hERG current change (%, negative = inhibition) at 10uM value for the following compound: CC1CCN(CCn2c(=S)[nH]c3cc4c(cc3c2=O)OCO4)CC1 -27.4

Provide hERG current change (%, negative = inhibition) at 10uM value for the following compound: COc1cccc(CC2(CO)CCCN(CC3=Cc4cc(OC)ccc4OC3)C2)c1 (stereo not drawn) -21.5

Provide hERG current change (%, negative = inhibition) at 10uM value for the following compound: OCC1(CCOc2ccccc2)CCN(CC2=Cc3cc(Cl)ccc3OC2)CC1 -21.9

Provide hERG current change (%, negative = inhibition) at 10uM value for the following compound: CCOC(=O)N1CCN(C(=O)c2cnc3n(c2=O)CCS3)CC1 7.34

---

- Tested target: human ether-à-go-go-related gene (hERG) potassium channel (human);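 further: peak tail current of the secondary pulse compared with the same well before compound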
- Test method notes: primary screen, population patch clamp on CHO cells stably expressing hERG; higher = less effect of the substance
Hit rate of the full screen: of about 310,000 compounds, about 14,000 (4.5%) showed an effect of 50% or more. Effects have a minus sign here. Shown is part of a subset that was picked to be rich in strong results.
Short version: hERG current change (%, negative = inhibition) at 10uM at least -70% is Y, less is N.

Is hERG current change (%, negative = inhibition) at 10uM at least -70%? Consider CCOC(=O)c1ccc(NC(=S)N(CCCN(CC)CC)Cc2ccco2)cc1 N

Is hERG current change (%, negative = inhibition) at 10uM at least -70%? Consider O=C(CN1CC=C(c2ccccc2)CC1)Nc1c(Cl)cccc1Cl Y

Is hERG current change (%, negative = inhibition) at 10uM at least -70%? Consider CCOc1ccc(/C=C2\SC(=S)N(N3C(=O)C4CC4C3=O)C2=O)cc1 (stereo not drawn) Y

Is hERG current change (%, negative = inhibition) at 10uM at least -70%? Consider O=C(Nc1ccc(NC(=O)C2CCCCC2)cn1)c1ccco1 Y

Is hERG current change (%, negative = inhibition) at 10uM at least -70%? Consider COc1ccc(OC)c(-c2c(=O)n(OCc3ccccc3Br)c3ccccc3[n+]2[O-])c1 Y

---

- Tested target: human ether-à-go-go-related gene (hERG) potassium channel (human, UniProt Q12809);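 further: peak tail current of the secondary pulse compared with the same well before compound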
- Test method notes: primary screen, population patch clamp on CHO cells stably expressing hERG; higher = less effect of the substance
The campaign covered roughly 310,000 compounds. About 14,000 (4.5%) showed an effect of 50% or more. The effect is printed as a negative number. The sample as a whole holds a higher share of strong results than the screen did.
Metric: hERG current change (%, negative = inhibition) at 10uM (%)
Supply the numeric figure in %, leaving out any unit text.

These solved cases illustrate the format of a correct answer.
Provide hERG current change (%, negative = inhibition) at 10uM value for the following molecule: COc1ccc(CCNC(=O)COC(=O)c2cnc(C)cn2)cc1 11.3

Provide hERG current change (%, negative = inhibition) at 10uM value for the following molecule: O=[N+]([O-])c1ccc(CS(=O)(=O)c2ccc(Cl)cc2)cc1 -9.81

Provide hERG current change (%, negative = inhibition) at 10uM value for the following molecule: O=C(Nc1cccc(Br)c1)/C(=C\c1cccnc1)NC(=O)c1ccco1 -56.6

Provide hERG current change (%, negative = inhibition) at 10uM value for the following molecule: COc1ccc(-n2nc(C(=O)NCC(=O)N3CCN(c4cccc(Cl)c4)CC3)c3ccccc3c2=O)c(OC)c1 -2.74

Provide hERG current change (%, negative = inhibition) at 10uM value for the following molecule: COc1ccc(CCNS(=O)(=O)c2cc(/C=C/C(=O)O)ccc2C)cc1OC 8.58

Provide hERG current change (%, negative = inhibition) at 10uM value for the following molecule: Nc1ncc([N+](=O)[O-])c(Oc2ccccc2F)n1 24.7

***
Provide hERG current change (%, negative = inhibition) at 10uM value for the following molecule: COc1cccc(N2CCN(C(=O)C3CCC(=O)N(C4CCCCCC4)C3)CC2)c1 (stereo not drawn) -32.8

Provide hERG current change (%, negative = inhibition) at 10uM value for the following molecule: CCc1ccc(NC(=O)C/C(C)=N/NC(=O)COc2ccc(C)cc2Br)cc1 -30.5

Provide hERG current change (%, negative = inhibition) at 10uM value for the following molecule: COc1ccccc1NS(=O)(=O)c1cc(C)ccc1C 4.55

Provide hERG current change (%, negative = inhibition) at 10uM value for the following molecule: O=C(Nc1cccc(Cl)c1)/C(=C\c1cccnc1)NC(=O)c1ccco1 -67

Provide hERG current change (%, negative = inhibition) at 10uM value for the following molecule: CCOC(=O)C1=C(N)Oc2ccc3ccccc3c2C1c1cccnc1 (stereo not drawn) 0.98

Provide hERG current change (%, negative = inhibition) at 10uM value for the following molecule: CC(=O)c1cccc(NC(=O)/C(=C\c2ccco2)NC(=O)c2ccco2)c1 -64.3

Provide hERG current change (%, negative = inhibition) at 10uM value for the following molecule: Cc1nc(SCC(=O)N2CCN(C(=O)c3ccco3)CC2)c2c(C)c(C)sc2n1 -66.8

Provide hERG current change (%, negative = inhibition) at 10uM value for the following molecule: O=C(O)c1ccc(COc2ccccc2[N+](=O)[O-])o1 14.8

Provide hERG current change (%, negative = inhibition) at 10uM value for the following molecule: Cc1nc(SCC(=O)N2CCCCC2)c2c(C)c(C)sc2n1 -11.7

Provide hERG current change (%, negative = inhibition) at 10uM value for the following molecule: O=C(Nc1ccccc1OC(F)F)c1ccc(Br)o1 -20.9

Provide hERG current change (%, negative = inhibition) at 10uM value for the following molecule: O=C(Nc1ccccc1)/C(=C/c1cccc(Br)c1)NC(=O)c1ccco1 5.35

Provide hERG current change (%, negative = inhibition) at 10uM value for the following molecule: O=C(Nc1ccc2ccccc2c1)/C(=C/c1cccc(Br)c1)NC(=O)c1ccco1 -68.6

Provide hERG current change (%, negative = inhibition) at 10uM value for the following molecule: COc1ccccc1C(=O)N1CCN(c2nc3cc(C)c(C)cc3cc2C#N)CC1 -2.28

Provide hERG current change (%, negative = inhibition) at 10uM value for the following molecule: Cc1ccc(OC(=O)CCc2c(C)nc3ncnn3c2C)cc1 -8.47

Provide hERG current change (%, negative = inhibition) at 10uM value for the following molecule: CC(=O)c1cccc(NC(=O)/C(=C/c2ccco2)NC(=O)c2ccco2)c1 -18.6
